- experimental_system: T1, hFc-human LIGHT (human)
- T1 construct: also called hFc-huLIGHT
- test_protocol: competition ELISA, LTβR-His coated, hFc-huLIGHT added
Quick reference: IC50 of the listed items.
Reply with the number, then its unit.

# example entries with known answers
{"binder": "hum_LT-m37-13 (antibody, human IgG4, V domains shown, humanized from LT-m37) VH: QVQLVQSGAEVKKPGASVKVSCKASGYSFTGYFINWVRQAPGQGLEWIGRIYPYNVDTFYNQNFKGRVTMTADKSTSTAYMELSSLRSEDTAVYYCGRGTHYYGSSGAMDYWGQGTLVTVSS VL: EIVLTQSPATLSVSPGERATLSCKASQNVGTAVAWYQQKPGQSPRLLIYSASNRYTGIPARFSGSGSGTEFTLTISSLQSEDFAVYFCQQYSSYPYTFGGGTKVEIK", "IC50": "0.867 nM"}
{"binder": "hum_LT-m37-14 (antibody, human IgG4, V domains shown, humanized from LT-m37) VH: QVQLVQSGAEVKKPGASVKVSCKASGYSFTGYFINWVRQAPGQSLEWIGRIYPYNVDTFYNQNFKGRATLTADKSTSTAYMELSSLRSEDTAVYYCGRGTHYYGSSGAMDYWGQGTLVTVSS VL: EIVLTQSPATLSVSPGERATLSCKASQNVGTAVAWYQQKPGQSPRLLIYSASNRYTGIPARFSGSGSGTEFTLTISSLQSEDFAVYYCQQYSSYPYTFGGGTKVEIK", "IC50": "1.02 nM"}
{"binder": "hum_LT-m37-15 (antibody, human IgG4, V domains shown, humanized from LT-m37) VH: QVQLVQSGAEVKKPGASVKVSCKASGYSFTGYFINWVRQAPGQGLEWIGRIYPYNVDTFYNQNFKGRATMTADKSTSTAYMELSSLRSEDTAVYYCGRGTHYYGSSGAMDYWGQGTLVTVSS VL: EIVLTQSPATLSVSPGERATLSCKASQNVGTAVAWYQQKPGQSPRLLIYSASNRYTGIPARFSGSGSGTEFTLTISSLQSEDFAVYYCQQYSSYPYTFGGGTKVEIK", "IC50": "0.844 nM"}

Next up:
Exercise: Bench note: what IC50 did hum_LT-m37-16 (antibody, human IgG4, V domains shown, humanized from LT-m37) VH: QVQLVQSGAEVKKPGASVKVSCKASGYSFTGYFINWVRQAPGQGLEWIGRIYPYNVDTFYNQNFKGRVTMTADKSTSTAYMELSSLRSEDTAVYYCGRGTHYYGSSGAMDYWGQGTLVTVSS VL: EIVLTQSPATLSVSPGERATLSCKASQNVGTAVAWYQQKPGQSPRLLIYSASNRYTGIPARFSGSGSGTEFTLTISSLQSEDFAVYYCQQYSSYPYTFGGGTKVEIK show?
Solution: 0.808 nM

Attribution: patent EP4596580A1
